Values from the supplement of paper PMC9233669

Some sequences, each annotated with its measured self-aminoacylation.
# System: biotinyl-Met-oxazolone
# experimental.details: self-aminoacylation, catalytic enhancement (BMO) (fold over background); higher = more active; k-Seq, kA / k0A0; sequences stand for … in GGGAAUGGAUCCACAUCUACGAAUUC…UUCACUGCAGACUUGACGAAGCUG
Variants at the floor of the assay were thinned out.

In the examples that follow, each entry is paired with its recorded self-aminoacylation.
sequence.code | self-aminoacylation
AUUCUCCUAGGUCAUCGAGUG [Fam2.2 aminoacylation ribozyme variant] | 5.07
AUUCACGUAGGUCAUCCGGUG [Fam2.2 aminoacylation ribozyme variant] | 13.2
CCACACUUCAAGCAAUCCGCC [Fam1B.1 aminoacylation ribozyme variant] | 1.16
AUUACCCUGGUCAGGGAGUGA [Fam2.1 aminoacylation ribozyme variant] | 3.36

The reported self-aminoacylation of the sequence CUACUUCAAACAAUCGGUAUC [Fam1A.1 aminoacylation ribozyme variant] was 0.541

The reported self-aminoacylation of the sequence CCACGCUUCAAGCAAUGGGUC [Fam1B.1 aminoacylation ribozyme variant] was 0.537

The reported self-aminoacylation of the sequence AUUCACAUAUGUCAUCGGGUG [Fam2.2 aminoacylation ribozyme variant] was 7.09

The reported self-aminoacylation of the sequence CCACACUUCUAGCCAUCGGUC [Fam1B.1 aminoacylation ribozyme variant] was 0.683

The reported self-aminoacylation of the sequence AUUCACCUAGGUCGUCGGGUG [Fam2.2 aminoacylation ribozyme variant] was 1.84

The reported self-aminoacylation of the sequence AUACACCUAGGUCAGCGGGUG [Fam2.2 aminoacylation ribozyme variant] was 3.8

The reported self-aminoacylation of the sequence AUUCACCUAUGUCAUCGAGUG [Fam2.2 aminoacylation ribozyme variant] was 4.64

The reported self-aminoacylation of the sequence AGGCUUGCUAAUAGUCGCAAG [Fam3.1 aminoacylation ribozyme variant] was 2.14

The reported self-aminoacylation of the sequence AUGACCCCGGUCAUCGAGUGA [Fam2.1 aminoacylation ribozyme variant] was 6.75

The reported self-aminoacylation of the sequence GUUACCCUGGUCUUCGAGUGA [Fam2.1 aminoacylation ribozyme variant] was 8.47

The reported self-aminoacylation of the sequence AAGUUUGGUAAUCGUCGCAAG [Fam3.1 aminoacylation ribozyme variant] was 1.49

The reported self-aminoacylation of the sequence CCACACUUCACGCGAUCGGUC [Fam1B.1 aminoacylation ribozyme variant] was 1.48
